These entries and their values trace back to patent US20120129720.

Molecular target: T1, His-MIF (His-tag/T7 gene 10 leader/Xpress-MIF fusion) (UniProt P14174 P14174:1-115)
T1 chain: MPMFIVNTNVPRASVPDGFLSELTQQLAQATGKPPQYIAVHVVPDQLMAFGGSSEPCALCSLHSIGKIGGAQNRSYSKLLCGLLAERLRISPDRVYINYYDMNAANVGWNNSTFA
Assay: SPR; 600 nM His-MIF
Conditions: MIF 115 aa; ATGen

binder | binding result
His_5 (ssRNA, 3' A20 tail for capture) RNA: GGGACGCUCACGUACGCUCAGAACCCGUAUUGGUCACAGGUGGAUUGGUCUAUAUUGUUAUCAGUGCCUGGACGUGCAGU | binds
His_2 (ssRNA, 3' A20 tail for capture) RNA: GGGACGCUCACGUACGCUCAGGUGAAUUGGCCGCCGUUCUUUCCGUGGAAUGACGCGAUGUCAGUGCCUGGACGUGCAGU | binds
His_6 (ssRNA, 3' A20 tail for capture) RNA: GGGACGCUCACGUACGCUCAGGUGUAUUGGAUUUGCUCCGAGGGUGUAGACCCCACAGAUUCAGUGCCUGGACGUGCAGU | binds
